assay: BSK_SAg_PBMCCytotoxicity: PBMC Cytotoxicity Assessment in the BioMAP Diversity Plus: SAg Assay (AID 2283093); conditions: primary human HUVEC with PBMC;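 further: PBMC viability measured as Alamar Blue reduction fluorescence at 546/580 nm; fitted both ways against DMSO so a hit may be loss or gain of signal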
Calls of active or inactive are those of the source. How the source made its calls: active means hit-call score of the fitted dose curve at least 0.9, where 1 is the maximum; inactive means score below 0.9.
Mark one answer only. Choices: active, inactive

Inquiry: What did this assay record as the result for CCC(C)c1cc([N+](=O)[O-])cc([N+](=O)[O-])c1O (configuration not stated) ?
Reply text: active

Inquiry: What did this assay record as the result for c1cc2ccc3cccc4ccc(c1)c2c34 ?
Reply text: inactive

Inquiry: What did this assay record as the result for CCSC(=O)N(CC)C1CCCCC1 ?
Reply text: inactive

Inquiry: What did this assay record as the result for O=C(NC(=O)c1c(F)cccc1F)Nc1cc(Cl)c(OC(F)(F)C(F)F)c(Cl)c1 ?
Reply text: inactive

Inquiry: What did this assay record as the result for CCCN(CCC)N=O ?
Reply text: inactive

Inquiry: What did this assay record as the result for ClC1=C(Cl)[C@]2(Cl)[C@@H]3[C@@H]4C[C@@H]([C@H]5O[C@@H]45)[C@@H]3[C@@]1(Cl)C2(Cl)Cl ?
Reply text: inactive

Inquiry: What did this assay record as the result for Clc1ccc(Cl)cc1 ?
Reply text: inactive

Inquiry: What did this assay record as the result for CC1=C2C[C@H]3[C@@H](CC=C4C[C@@H](O)CC[C@@]43C)[C@@H]2CC[C@]12O[C@@H]1C[C@H](C)CN[C@H]1[C@H]2C ?
Reply text: inactive

Inquiry: What did this assay record as the result for Nc1ccc(-c2ccc(N)cc2)cc1 ?
Reply text: inactive

Inquiry: What did this assay record as the result for CCCCCCCCCC[N+](C)(C)CCCCCCCCCC ?
Reply text: active

Others:
Inquiry: What did this assay record as the result for COS(=O)(=O)OC ?
Reply text: inactive

Inquiry: What did this assay record as the result for Cc1ccccc1[N+](=O)[O-] ?
Reply text: inactive
